# SYSTEM_TESTED: REFACTO® factor VIII-like polypeptide (amino acids 1-743 and 1638 through 2332 of human factor VIII) (human) (UniProt P00451)
# Sequence (P00451 20-762, chain 1 of 2): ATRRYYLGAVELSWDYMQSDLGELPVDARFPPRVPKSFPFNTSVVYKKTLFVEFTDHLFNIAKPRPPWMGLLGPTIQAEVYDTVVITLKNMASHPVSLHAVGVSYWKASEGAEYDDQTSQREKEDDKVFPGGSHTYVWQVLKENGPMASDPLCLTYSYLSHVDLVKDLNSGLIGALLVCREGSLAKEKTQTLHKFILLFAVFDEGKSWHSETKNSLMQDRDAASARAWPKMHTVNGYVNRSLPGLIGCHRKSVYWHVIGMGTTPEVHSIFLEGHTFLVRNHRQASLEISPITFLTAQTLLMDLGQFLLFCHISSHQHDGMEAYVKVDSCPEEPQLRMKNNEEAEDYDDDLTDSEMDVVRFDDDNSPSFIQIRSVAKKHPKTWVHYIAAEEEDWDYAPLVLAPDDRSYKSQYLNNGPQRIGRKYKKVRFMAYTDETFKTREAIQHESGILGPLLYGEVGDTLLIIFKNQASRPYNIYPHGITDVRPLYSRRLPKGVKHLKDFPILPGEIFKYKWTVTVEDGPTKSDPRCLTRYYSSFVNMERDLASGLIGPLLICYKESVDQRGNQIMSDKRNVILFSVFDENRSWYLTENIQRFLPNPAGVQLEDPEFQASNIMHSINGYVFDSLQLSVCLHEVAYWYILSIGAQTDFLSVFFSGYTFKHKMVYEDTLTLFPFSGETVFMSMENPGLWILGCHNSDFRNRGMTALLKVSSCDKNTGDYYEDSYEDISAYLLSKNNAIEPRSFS
# Sequence (P00451 1657-2351, chain 2 of 2): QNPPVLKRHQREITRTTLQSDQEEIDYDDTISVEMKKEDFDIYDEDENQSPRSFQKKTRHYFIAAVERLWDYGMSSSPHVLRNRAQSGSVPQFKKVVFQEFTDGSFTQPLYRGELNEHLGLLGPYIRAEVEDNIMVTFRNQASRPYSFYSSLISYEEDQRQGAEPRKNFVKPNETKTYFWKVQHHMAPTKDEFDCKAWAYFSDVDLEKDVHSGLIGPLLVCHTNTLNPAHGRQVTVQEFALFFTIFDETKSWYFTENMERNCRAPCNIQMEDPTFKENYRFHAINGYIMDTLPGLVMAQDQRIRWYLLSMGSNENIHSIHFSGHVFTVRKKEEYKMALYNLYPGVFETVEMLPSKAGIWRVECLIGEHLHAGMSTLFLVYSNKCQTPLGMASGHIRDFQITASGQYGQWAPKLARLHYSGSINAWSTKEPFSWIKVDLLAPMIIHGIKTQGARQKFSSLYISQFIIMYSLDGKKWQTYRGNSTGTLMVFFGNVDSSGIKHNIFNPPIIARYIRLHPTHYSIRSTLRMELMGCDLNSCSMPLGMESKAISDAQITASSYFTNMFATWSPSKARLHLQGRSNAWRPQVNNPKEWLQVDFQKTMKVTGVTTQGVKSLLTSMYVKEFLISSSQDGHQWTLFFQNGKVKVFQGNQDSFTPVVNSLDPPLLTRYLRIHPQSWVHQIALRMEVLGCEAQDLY
# MEASUREMENT_DESCRIPTION: affinity column of immobilised peptide; fractions by RP-HPLC
Positions of bridges follow the written chain, without caps; N, C: chain ends. No end group written: not given here. *: point of attachment. NHNH2 = NN*
QUANTITY_NAME: % recovery in Elution A

**Q:** Quickly give me recorded % recovery in Elution A for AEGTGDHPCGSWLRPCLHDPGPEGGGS-NHNH2 (disulfide 9-16 (inferred)) [Affinity ligand CS-453]
**A:** 43.2%

**Q:** Quickly give me recorded % recovery in Elution A for AEGTGDFCWVFPFHHCFDPGPEGGGS-NHNH2 (disulfide 8-16 (inferred)) [Affinity ligand CS-460]
**A:** 28.8%

**Q:** Quickly give me recorded % recovery in Elution A for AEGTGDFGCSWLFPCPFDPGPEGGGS-NHNH2 (disulfide 9-15 (inferred)) [Affinity ligand CS-456]
**A:** 44.8%

**Q:** Quickly give me recorded % recovery in Elution A for AEGTGDHLCGAWFRPCDADPGPEGGGS-NHNH2 (disulfide 9-16 (inferred)) [Affinity ligand CS-454]
**A:** 45.1%
